Would you kindly list Percent Similarity Score (KD on rN) for each of these binders?
Target: T1, rat NGF (rat, UniProt P25427 122-241)
T1 construct: also called rN
T1 sequence (P25427 122-241 limits assumed): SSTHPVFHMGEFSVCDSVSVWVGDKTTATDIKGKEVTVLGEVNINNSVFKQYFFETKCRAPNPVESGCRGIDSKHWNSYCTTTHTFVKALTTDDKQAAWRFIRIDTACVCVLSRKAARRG
Assay: SPR (Biacore T200), 100 nM mAb on NGF chip, similarity to parent mAb
Description: The region of an antibody responsible for antigen recognition represents the paratope. A paratope is created by a combination of amino acids in the complementarity determining regions (CDRs) of both the heavy and light chain variable regions. The binding between antibody and antigen is often mediated by side chains of CDR residues with side chains or carbohydrate moieties of the antigen. […]
Give bare numbers, in %.

Some binders with recorded Percent Similarity Score (KD on rN):
| Binder | Parameter | Readout unit | Obs value |
| --- | --- | --- | --- |
| can9L12VH_G109A (antibody, V domains shown) VH: EVQLVESGGDLVKPGGSLRLSCVASGFTFSSHGMHWVRQSPGKGLQWVAVINSGGSSTYYTDAVKGRFTISRDNAKNTVYLQMNSLRAEDTAMYYCAKESVGGWEQLVAPHFDYWGQGTLVIVSS VL: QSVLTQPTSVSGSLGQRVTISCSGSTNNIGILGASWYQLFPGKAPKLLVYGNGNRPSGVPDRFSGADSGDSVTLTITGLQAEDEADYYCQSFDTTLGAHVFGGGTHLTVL | Percent Similarity Score (KD on rN) | % | 62 |
| can48L2VH_G55A (antibody, V domains shown, CDR scanning mutant of ZTS-842 (48L2)) VH: EVQLVESGGDLVKPGGSLRLSCVASGFTFSTYGINWVRQAPGKGLQWVAYISSGASSTYYADPVKGRFTISRDDAKNMLYLQMNSLRAEDTAIYYCAGSRYTYAYGGGYEFHFWGQGTLVTVSS VL: QAVLNQPASVSGALGQKVTISCSGSTMDIDIFGVSWYQQLPGKAPKLLVDSDGDRPSGIPDRFSGSRSGNSGTLTITGLQAEDEADYHCQSGDSTLGALAIFGGGTHVTVL | Percent Similarity Score (KD on rN) | % | 99.7 |
| can48L2VH_S57A (antibody, V domains shown, CDR scanning mutant of ZTS-842 (48L2)) VH: EVQLVESGGDLVKPGGSLRLSCVASGFTFSTYGINWVRQAPGKGLQWVAYISSGGSATYYADPVKGRFTISRDDAKNMLYLQMNSLRAEDTAIYYCAGSRYTYAYGGGYEFHFWGQGTLVTVSS VL: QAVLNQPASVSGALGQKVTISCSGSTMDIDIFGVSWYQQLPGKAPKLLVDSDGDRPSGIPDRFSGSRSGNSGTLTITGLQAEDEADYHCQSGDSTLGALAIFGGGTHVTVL | Percent Similarity Score (KD on rN) | % | 99.7 |

Given the binder can48L2VH_S52A (antibody, V domains shown, CDR scanning mutant of ZTS-842 (48L2)) VH: EVQLVESGGDLVKPGGSLRLSCVASGFTFSTYGINWVRQAPGKGLQWVAYIASGGSSTYYADPVKGRFTISRDDAKNMLYLQMNSLRAEDTAIYYCAGSRYTYAYGGGYEFHFWGQGTLVTVSS VL: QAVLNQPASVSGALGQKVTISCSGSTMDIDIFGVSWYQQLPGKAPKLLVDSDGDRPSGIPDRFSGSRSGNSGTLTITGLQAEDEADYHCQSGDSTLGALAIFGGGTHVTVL , what is its reported Percent Similarity Score (KD on rN)? 99.8
